B1: PBXIP1 (parent)
chain: LPVETLGPASRMDPESERALQAPH

Variants of: B1
Experiment: protein stability index of a GFP-peptide fusion (GPS, HEK-293T) (PSI 1-6); higher = more stable;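 note: lentivirally expressed fusions sorted by FACS into six bins by GFP to DsRed ratio, PSI derived from sequencing read proportions per bin multiplied by bin number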
Conditions: c terminus: a fixed tail appended
The threshold is inclusive: protein stability index of exactly 4 counts as 1; values below receive 0.

VARIANT_NOTATION | LABEL_CLASS
P8S | 1
V3W | 1
H24T | 1
L6H | 1
A9G | 1
L20S | 1
D13F | 1
T5D | 1
L1A | 1
D13H | 0
Q21F | 0
A22E | 1
A22I | 1
P23S | 1
P2I | 0
D13S | 0
E4I | 1
E4Q | 1
V3H | 1
L20Q | 1
A9R | 1
G7C | 1
P2L | 0
V3G | 1
S10L | 0
S16R | 0
G7F | 1
E15Q | 1
G7E | 1
A9Q | 1
D13E | 1
P8H | 1
R18Y | 0
A19G | 1
T5M | 1
E4R | 1

Values compiled from the supplement of paper PMC10567573.
